Tested on: HHQ
Experiment: Assay for HHQ Inhibition (6 Hour Incubation)
Format: cell-based, P. aeruginosa PA14 wild-type strain
Settings: Pseudomonas aeruginosa, PA14, 6 h, read-out: HHQ (6 hr) IC50 (μM)
ASSAY_ENDPOINT: IC50

Use these answered entries as a reference point.
> print(dat)
                                   compound  assayed.target   observed
1  N#Cc1ccc(NC(=O)CSc2nc3cc(Br)ccc3[nH]2)cc1 [Compound 96]             HHQ     < 1 µM
2  N#Cc1ccc(NC(=O)CSc2nc3cc(C(F)(F)F)ccc3[nH]2)cc1 [Compound 56]             HHQ     < 1 µM
3  O=C(CSc1nc2cc(Cl)ccc2[nH]1)Nc1ccc(Oc2ccc(Cl)nc2)cc1 [Compound 84]             HHQ     < 1 µM
4  O=C(CSc1nc2ccc(Cl)cc2[nH]1)Nc1ccc(Cl)cc1 [Compound 137]             HHQ     < 1 µM
5  O=C(CNc1nc2cc(Cl)ccc2s1)Nc1ccc(Oc2cccnc2)cc1 [Compound 71]             HHQ  1 to 5 µM
6  O=C(CSc1nc2ccc(Br)cc2[nH]1)Nc1ccc(Cl)cc1 [Compound 145]             HHQ     < 1 µM

For the compound shown here, O=C(CCc1nc2ccc(Cl)cc2s1)Nc1ccc(Oc2cccnc2)cc1 [Compound 86] , give the reported IC50.
> 10 µM

What value of measured IC50 is listed for O=C(CCc1nc2ccc(Cl)cc2[nH]1)Nc1ccc(Oc2cccnc2)cc1 [Compound 152] ?
< 1 µM

If you can, please state the reported IC50 value of O=C(CSc1nc2cc(C(F)(F)F)ccc2[nH]1)Nc1ccc(Cl)cc1 [Compound 105] .
< 1 µM

====

Each record here notes measured IC50.
System: HHQ
Assay: Assay for HHQ Inhibition (6 Hour Incubation)
Type: cell-based, P. aeruginosa PA14 wild-type strain
Conditions: Pseudomonas aeruginosa, PA14, 6 h, read-out: HHQ (6 hr) IC50 (μM)

> print(dat)
                         compound.structure  assay.endpoint   observed
1    N#Cc1ccc(NC(=O)CSc2nc3cc(Br)ccc3o2)cc1            IC50     < 1 µM
2  N#Cc1ccc2nc(SCC(=O)Nc3ccc(Cl)cc3)[nH]c2c1            IC50  1 to 5 µM
3  O=C(CCc1nc2cc(Cl)ccc2s1)Nc1ccc(Oc2cccnc2)cc1            IC50  1 to 5 µM

Any idea what IC50 was measured for O=C(CSc1nc2cc(F)ccc2[nH]1)Nc1ccc(Cl)cc1 ?
1 to 5 µM

Can you share its IC50? I mean this compound: O=C(CSc1nc2cc(Cl)ccc2[nH]1)Nc1ccc(Oc2cccnc2)cc1
< 1 µM

Can you look up the measured IC50 of N#Cc1ccc(NC(=O)CSc2nc3cc(Cl)ccc3[nH]2)cc1 for me?
< 1 µM

Can you look up the measured IC50 of N#Cc1ccc(NC(=O)CSc2nc3cc(OC(F)F)ccc3[nH]2)cc1 for me?
1 to 5 µM

Fill in: IC50 of O=C(CSc1nc2ccc(-n3cccn3)cc2[nH]1)Nc1ccc(Cl)cc1 is ___
> 10 µM

Field request: IC50 | item: N#Cc1ccc(NC(=O)CSc2nc3cc(F)ccc3[nH]2)cc1
1 to 5 µM

====

Test system: HHQ
Assay: Assay for HHQ Inhibition (6 Hour Incubation)
Format: cell-based, P. aeruginosa PA14 wild-type strain
Settings: Pseudomonas aeruginosa, PA14, 6 h, read-out: HHQ (6 hr) IC50 (μM)
ASSAY_ENDPOINT: IC50

// known answers, use as guide
> print(dat)
                                   compound  assayed.target  observed
1  N#Cc1ccc(NC(=O)CSc2nc3cc(Cl)ccc3[nH]2)cc1Cl [Compound 142]             HHQ    < 1 µM
2  O=C(CSc1nc2cc(Cl)ccc2[nH]1)Nc1ccc(Oc2cccnc2Cl)cc1 [Compound 83]             HHQ    < 1 µM
3  O=C(CNc1nc2cc(Cl)ccc2o1)Nc1ccc(Oc2cccnc2)cc1 [Compound 74]             HHQ    < 1 µM

What value of IC50 on HHQ does O=C(CNc1nc2ccc(Cl)cc2[nH]1)Nc1ccc(Oc2cccnc2)cc1 [Compound 159] have?
< 1 µM

Form field - read-out: IC50; system: HHQ; submitted item: N#Cc1ccc(NC(=O)CSc2nc3ccc(C#N)cc3[nH]2)cc1 [Compound 93]
< 1 µM
